protein stability index: recorded values
- protocol_text: protein stability index of a GFP-peptide fusion (yeast GPS) (PSI 1-4); higher = more stable; sorted into four equal gates, so the index is relative within each strain
- conditions: ubr1∆
assay_endpoint: protein stability index

>>> reported_value("PQAVTITSIMDDLALPY [ITC1]")
3.02
>>> reported_value("KIALGSPIVNVLEDVYR [RRI2]")
2.77
>>> reported_value("MSDFVPIDAGLNEAPFP [MCD1]")
2.97
>>> reported_value("VEYLDVNEENDSYIALY [RET1]")
3.2
>>> reported_value("NRSNDALIKFMEYHISN [FAS2]")
2.45
>>> reported_value("LQYYILEYMNTARINNR [RRI2]")
1.93
>>> reported_value("QQLQVLARYLKMDLDNG [FAS2]")
2.31
>>> reported_value("VGGQFSKVQFDAKTSYP [REC8]")
3.19
>>> reported_value("YIKNILEAPVKSIENPT [YLR335W/NUP2]")
2.13
>>> reported_value("GHRMKNAQSKLSLTLNT [SNF2]")
2.24
>>> reported_value("FNYVAVGDVSNLPYLDE [QCR2]")
3.11
>>> reported_value("YIDYSSKRYIPSVNDFV [RRP40]")
2.6
>>> reported_value("NVTETYSVYLIHEIRLN [SIR3]")
2.37
>>> reported_value("NMVSLRGRNDTLERVHL [GRR1]")
2.73
>>> reported_value("DYPSTSLDIRHDFIKGL [NUT1]")
2.56

* * *

Below is a list of entries, each paired with its recorded protein stability index value.
- protocol_text: protein stability index of a GFP-peptide fusion (yeast GPS) (PSI 1-4); higher = more stable; sorted into four equal gates, so the index is relative within each strain
- conditions: san1∆
assay_endpoint: protein stability index

>>> reported_value("KWDDLNEQLTLLSKKHG [RPN5]")
2.58
>>> reported_value("STGAADGGYNAQLAKAK [SMC2]")
3.22
>>> reported_value("IDESLFNLLILSLNKRI [YCG1]")
2.03
>>> reported_value("DEGMESIEMEEETDDED [RRI2]")
3.26
>>> reported_value("NGEEIVGFWKDDGDDED [MTR3]")
2.89
>>> reported_value("IIVFGYPESISNELIEH [YDL088C/ASM4]")
2.63
>>> reported_value("PDAKIQVRRDIPSAAFN [YMR129W/POM152]")
1.63
>>> reported_value("TKHPSLKTLTHKQIHTT [POP7]")
2.21
>>> reported_value("LIQLGVKPLESSAKRSK [SRP72]")
2.56
>>> reported_value("WNLNATKPNVLNDPSLK [SIN4]")
3
>>> reported_value("KIPILAQHESFLRQKIC [RPN9]")
1.85
>>> reported_value("ARSGLRIGRIEDVTPVP [RPS14A]")
2.92
>>> reported_value("ANLPWLGKAQNWAKFTA [RPN2]")
3.11
>>> reported_value("QTSVTTNFNEITNTDET [SWP82]")
2.86

* * *

Reported protein stability index values are given for each entry in this list.
- protocol_text: protein stability index of a GFP-peptide fusion (yeast GPS) (PSI 1-4); higher = more stable; sorted into four equal gates, so the index is relative within each strain
- conditions: ubr1∆
assay_endpoint: protein stability index

>>> reported_value("RKANREEKLKANKEKKK [RPL24A]")
2.31
>>> reported_value("GDKVVVTIWYRAPELLL [SSN3]")
2.05
>>> reported_value("VLPKIFNSVKSFDEWFN [SNF2]")
1.77
>>> reported_value("AKWAPTLRTISFKGSPN [SNF2]")
2.51
>>> reported_value("SIQEQIQEFQGNPYIEL [SNF5]")
3.31
>>> reported_value("ETQEIKENDTVMNTKLL [ESC2]")
3.18
>>> reported_value("KLLFQELLSMNIAPRLR [RET1]")
1.24
>>> reported_value("QHYLDTATAPRLFDKLK [QCR6]")
2.76
>>> reported_value("GWYHSHPGFGCWLSSVD [RPN11]")
2.64
>>> reported_value("KSKLFEWKSEFVVPTFG [SNM1]")
1.32
>>> reported_value("SKAFKESSDFGAIILTK [SRP54]")
1.67
>>> reported_value("SLYTSREPRVVSALQML [PUP1]")
2.92
>>> reported_value("DISAAIVHSSDGHLQFL [DLS1]")
2.8
>>> reported_value("FVKGISRDIKALQDSLF [YML103C/NUP188]")
1.7
>>> reported_value("TYDKETITDLIEQGIPK [SIR4]")
3.41
>>> reported_value("IYNNIVSNIEGILDEIM [RGR1]")
2.46
>>> reported_value("VSPAFRVQVGDIVTVGQ [RPS11A]")
2.42
>>> reported_value("GEALPNKFHKSIREDIL [SIR2]")
2.76
>>> reported_value("DETTVPSYYYYVDPETT [ROX3]")
3.25
>>> reported_value("VKGETRIQNRVKLGLNS [PRP8]")
2.58
>>> reported_value("TWIQQFKSTMLQVSEKD [ARP7]")
1.73
>>> reported_value("IDSVEVETNTTVLADEF [RPB3]")
3.16
>>> reported_value("LKIYKVGDIVDIKANGS [RPL21B]")
2.08
>>> reported_value("SVQTFGKKKSATAVAHV [RPS16A]")
2.1
>>> reported_value("MNNGSGRYLLTPPDDLH [SRB8]")
2.63
>>> reported_value("EINSEDYDNKTKLIGVL [SRP68]")
3.02
>>> reported_value("VQESGNIDYQKGLLIWR [GRR1]")
2.75
>>> reported_value("FLNDVIPTTKNLRLLVE [DLS1]")
3.47
>>> reported_value("RQQAYKTAQTLDENLNS [YJL041W/NSP1]")
2.8
>>> reported_value("VDDLRPEFAGYSKAAEP [ASC1]")
3.67
>>> reported_value("SEDSMNVQLRDVIATEP [SMD3]")
3.23

The values you see were collected from the supplement of paper PMC9732359.
